As a worked illustration, we turn to IC50 data collected for Plasmepsin II (Plasmodium falciparum, UniProt P46925).
Numbers only, in nM.

Please review the entries below; each comes with its answer.
• CCCCCc1ccc(C(=O)N(CCN(CCCC)CCCC)Cc2ccc(N3CCN(Cc4ccccc4)CC3)cc2)cc1 = 646
• CCCCCc1ccc(C(=O)N(CCN(CCCC)CCCC)Cc2ccc(-c3cccnc3)cn2)cc1 = 5270
• CCCCCc1ccc(C(=O)N(CCN(CCCC)CCCC)Cc2ccc(NCc3ccccc3)cc2)cc1 = 429

As a next step, examine the compound that follows.
IN: Bench note: what IC50 did CCCCCc1ccc(C(=O)N(CCN(CCCC)CCCC)Cc2ccc(N3CCN(c4ccccc4)CC3)cc2)cc1 show?
OUT: 200

Entry source: ChEMBL document CHEMBL1146154
